Readings of growth for the listed compounds
System: MDA-MB-231 breast
Assay: NCI-60 one-dose screen, 48 h (100 = growth as untreated, 0 = no growth, -100 = all killed)
Conditions: 10 µM unless noted
The panel holds about 83,000 compounds, 20% with a hit somewhere; the sample as a whole holds those more often.
Answer with a number only, understood to be in %.

Some compounds with known growth results, for comparison:
                                   compound  meas_value
0  CC(SC(C)C(=O)N/N=C/c1cccc(Cl)c1)C(=O)N/N=C\c1cccc(Cl)c1 (stereo not given)        28.1
1  OC(CCCCCCCCC(O)CN1CCc2ccccc2C1)CN1CCc2ccccc2C1 (stereo not given)          98
2    CC(C)N(C(=S)SSC(=S)N(C(C)C)C(C)C)C(C)C         119
3          CCCCCCCC/C=C\CCCCCCCC(=O)OCCCCCC         136

// next entry
Query: State the recorded growth for this entry: CCOC(=O)C1C(=O)C=C(c2ccccc2)CC1c1sc(N(C)Cc2ccccc2)nc1Cl (stereo not given)
Result: 82.9

----------
Readings of growth for the listed molecules
Tested on: OVCAR-3 ovarian
Assay: NCI-60 one-dose screen, 48 h (100 = growth as untreated, 0 = no growth, -100 = all killed)
Conditions: 10 µM unless noted
This is part of a sample that, as a whole, favours compounds with a hit. Of some 83,000 tested, about 20% had one in any assay.
Answer with a number only, understood to be in %.

Some molecules with known growth results, for comparison:
MOLECULE	growth [%]
Cn1c(=O)c2c(nc(N/N=C/c3ccccc3Cl)n2C)n(C)c1=O	119
CC(C)CCSc1nc(-c2ccc(F)cc2)c(C#N)c(N2CCN(C)CC2)n1	93.9
Clc1ccc(C2=NN[C@H](c3cn(-c4ccccc4)nc3-c3ccccc3)C2)cc1	58.6
COc1ccc(C(=O)OC2C(OC3C(O)COC(O[C@H]4C[C@H]5[C@@H]6CC=C7C[C@@H](O)CC[C@]7(C)[C@H]6CC[C@]5(C)[C@H]4[C@H](C)C(=O)CCC(C)C)C3OC(N)=O)OCC(O)C2O)cc1 (some centres undefined)	58.3
COc1cc(-c2nn(C(=O)NCCN3CCN(C)CC3)cc2-c2ccncc2)ccc1Cl	97.2

Query: State the recorded growth for this entry: Cc1cc(Nc2c3ccccc3nc3ccccc23)ccc1NS(C)(=O)=O
Result: 46.6

Query: State the recorded growth for this entry: O/N=C/c1ccncc1
Result: 113

Query: State the recorded growth for this entry: O=[N+]([O-])c1ccc(SSc2ccc([N+](=O)[O-])cc2Cl)c(Cl)c1
Result: 101

Query: State the recorded growth for this entry: CN1C2CCC1/C(=C\c1ccc(F)cc1)C(=O)/C2=C/c1ccc(F)cc1
Result: 21

----------
Test system: SN12C renal
Assay: NCI-60 one-dose screen, 48 h (100 = growth as untreated, 0 = no growth, -100 = all killed)
Conditions: 10 µM unless noted
The panel holds about 83,000 compounds, 20% with a hit somewhere; the sample as a whole holds those more often.
// returns not met unless growth is strictly below 80%, in which case met

The following compounds have reported results that may help.
COMPOUND	CLASSIFICATION
Cc1c(C(=O)CCl)c(=O)n(-c2ccccc2)n1C	not met
COc1cc(C2CC(c3ccc(C)cc3)=NN2C=O)ccc1Oc1ccnc2cc(Cl)ccc12 (stereo not given)	met
COC(=O)[C@@H](Cc1c[nH]c2ccccc12)NC(=O)/C=C/c1ccccc1	met
COc1cc(C2CC(=O)Nc3c2cnn3C)cc(OC)c1OC (stereo not given)	not met
Nc1c(C(=O)Nc2ccccc2)sc2nc3c(cc12)C(=O)CCC3	met

Query: Determine whether this compound shows growth lower than 80% (ties excluded): CC(C)[C@@]12C[C@@H](OC(=O)C3CO3)[C@@](C)(O1)[C@@H]1CC[C@@H](C)[C@H]1[C@@H]2OC(=O)/C=C/c1ccccc1 (stereo not given in full)
Result: met

Query: Determine whether this compound shows growth lower than 80% (ties excluded): Cc1c(C(=O)Nc2ccccc2F)sc2c(=O)[nH]cnc12
Result: not met

Query: Determine whether this compound shows growth lower than 80% (ties excluded): OCCN(CCO)c1ccc2ccccc2c1
Result: not met

Query: Determine whether this compound shows growth lower than 80% (ties excluded): COc1cccc(/C=N\Nc2ccc([N+](=O)[O-])cn2)c1O
Result: met

Query: Determine whether this compound shows growth lower than 80% (ties excluded): C#Cc1cccc(Nc2nc3cc([N+](=O)[O-])ccc3nc2Nc2ccc(O)cc2)c1
Result: met
